Attribution: patent US20240287052A1

assay: Cellular viability, WST-8 assay, without or with human liver microsomes; assay type: cell-based; conditions: HepG2 cells; HepG2, without human liver microsomes; read-out: CC50 (μM) (−) microsome
So basically, the class depends on measured CC50 at 24 h, and the ranges are low bin: < 10 µM; mid bin: ≥ 10 µM and < 20 µM; high bin: ≥ 20 µM

>  <cpdSmiles>
CC(=O)N1CCN(CCNC(=O)c2nc(-c3ccc(C(F)(F)F)cc3)oc2-c2ccccc2[N+](=O)[O-])CC1

>  <className>
high bin

$$$$
>  <cpdSmiles>
CSc1ccc(-c2nc(C(=O)NCCN3CCN(C)CC3)c(-c3ccccc3)o2)cc1

>  <className>
low bin

$$$$
>  <cpdSmiles>
CCOC(=O)c1nc(-c2ccc(SC)cc2)oc1-c1ccccc1

>  <className>
mid bin

$$$$
>  <cpdSmiles>
CSc1ccc(-c2nc(C(=O)NCCN(C)C)c(-c3ccccc3)o2)cc1

>  <className>
low bin

$$$$
>  <cpdSmiles>
CCOC(=O)c1nc(-c2ccc(C(F)(F)F)cc2)oc1-c1cccc([N+](=O)[O-])c1

>  <className>
high bin

$$$$
>  <cpdSmiles>
CN(C)CCNC(=O)c1nc(-c2ccc(C#N)cc2)oc1-c1ccccc1

>  <className>
mid bin

$$$$
>  <cpdSmiles>
CN1CCN(CCNC(=O)c2nc(-c3cc(F)cc(F)c3)oc2-c2ccccc2[N+](=O)[O-])CC1

>  <className>
mid bin

$$$$
>  <cpdSmiles>
CN(C)CCNC(=O)c1nc(-c2ccc([N+](=O)[O-])cc2)oc1-c1ccccc1[N+](=O)[O-]

>  <className>
high bin

$$$$
>  <cpdSmiles>
CN(C)CCNC(=O)c1nc(-c2cccc(Cl)c2)oc1-c1ccccc1

>  <className>
low bin

$$$$
>  <cpdSmiles>
CN(C)CCNC(=O)c1nc(-c2ccc(Cl)cc2)oc1-c1ccccc1[N+](=O)[O-]

>  <className>
mid bin

$$$$
